- test-description: xn = mol fraction of the nth substance listed
- run-parameters: 293.15 K; 100 kPa; Liquid; Cone and plate viscometry; x1 = 0.898
Numbers after ± are expanded uncertainties.
endpoint: viscosity

molecule	observed-result
CCCCCCCCCCCCCC[P+](CCCCCC)(CCCCCC)CCCCCC.N#Cc1ccc[n-]1 [trihexyl(tetradecyl)phosphonium 2-cyanopyrrolide] + CCCCCC[n+]1ccn(C)c1.O=S(=O)([N-]S(=O)(=O)C(F)(F)F)C(F)(F)F	578 ± 75 mPa·s
CCCCCCn1cc[n+](C)c1C.O=[N+]([O-])c1cn[n-]c1 [1-hexyl-2,3-dimethylimidazolium 4-nitropyrazolide] + CCCCCCCCCCCCCC[P+](CCCCCC)(CCCCCC)CCCCCC.O=S(=O)([N-]S(=O)(=O)C(F)(F)F)C(F)(F)F	1330 ± 180 mPa·s
CCCCCCCCCCCCCC[P+](CCCCCC)(CCCCCC)CCCCCC.O=[N+]([O-])c1cn[n-]c1 [trihexyl(tetradecyl)phosphonium 4-nitropyrazolide] + CCCCCC[n+]1ccn(C)c1.O=S(=O)([N-]S(=O)(=O)C(F)(F)F)C(F)(F)F	880 ± 120 mPa·s

Continue with the molecule presented below.
Data request: Using the record for CCCCCCCC[P+](CC)(CC)CC.O=[N+]([O-])c1cn[n-]c1 [triethyloctylphosphonium 4-nitropyrazolide] + CCCCCC[n+]1ccn(C)c1.O=S(=O)([N-]S(=O)(=O)C(F)(F)F)C(F)(F)F , report its viscosity.
Data returned: 369 ± 47 mPa·s

---

mass density for assorted compounds
- run-parameters: 328.15 K; 100 kPa; Liquid; Vibrating tube method
Reply with just the number (in kg/m3).

Worked cases, answers included:
compound	observed-result
CCn1cc[n+](C)c1.O=S(=O)([N-]S(=O)(=O)C(F)(F)F)C(F)(F)F	1489.1
CCCCCCn1cc[n+](C)c1C.O=S(=O)([N-]S(=O)(=O)C(F)(F)F)C(F)(F)F	1333.2
CCCC[n+]1ccn(C)c1.O=S(=O)([N-]S(=O)(=O)C(F)(F)F)C(F)(F)F	1408.7
CCCCCC[n+]1ccn(C)c1.O=S(=O)([N-]S(=O)(=O)C(F)(F)F)C(F)(F)F	1344.7

Data request: // returns reported mass density for input CCCCCCCC[P+](CC)(CC)CC.O=[N+]([O-])c1cn[n-]c1 [triethyloctylphosphonium 4-nitropyrazolide]
Data returned: 1013.8

---

- run-parameters: 318.15 K; 100 kPa; Liquid; Vibrating tube method
endpoint: mass density (kg/m3)
Kindly provide the numeric value in kg/m3 only, without the unit symbol.

Guide cases for mass density, answers given:
compound	observed-result
CCn1cc[n+](C)c1.O=S(=O)([N-]S(=O)(=O)C(F)(F)F)C(F)(F)F	1499
CCCC[n+]1ccn(C)c1.O=S(=O)([N-]S(=O)(=O)C(F)(F)F)C(F)(F)F	1418
CCCCCCCC[P+](CC)(CC)CC.O=[N+]([O-])c1cn[n-]c1 [triethyloctylphosphonium 4-nitropyrazolide]	1019.6
CCCCCC[n+]1ccn(C)c1.O=S(=O)([N-]S(=O)(=O)C(F)(F)F)C(F)(F)F	1353.7

Could you now look at the following compound, please?
Data request: For CCCCCCn1cc[n+](C)c1C.O=S(=O)([N-]S(=O)(=O)C(F)(F)F)C(F)(F)F , what is its reported mass density?
Data returned: 1342

---

Some compounds, each annotated with its measured viscosity.
- test-description: xn = mol fraction of the nth substance listed
- run-parameters: 318.15 K; 100 kPa; Liquid; Cone and plate viscometry; x1 = 0.3
The reply should be a number in mPa·s, with the unit left off.

Reference set, count: 2
compound	unit-symbol	observed-result
CCCCCCCCCCCCCC[P+](CCCCCC)(CCCCCC)CCCCCC.N#Cc1ccc[n-]1 [trihexyl(tetradecyl)phosphonium 2-cyanopyrrolide] + CCCCCC[n+]1ccn(C)c1.O=S(=O)([N-]S(=O)(=O)C(F)(F)F)C(F)(F)F	mPa·s	64
CCCCCCn1cc[n+](C)c1.N#Cc1ccc[n-]1 [1-hexyl-3-methylimidazolium 2-cyanopyrrolide] + CCCCCCCCCCCCCC[P+](CCCCCC)(CCCCCC)CCCCCC.O=S(=O)([N-]S(=O)(=O)C(F)(F)F)C(F)(F)F	mPa·s	109

Then there is this compound:
Data request: What value of measured viscosity is listed for CCCCCCCCCCCCCC[P+](CCCCCC)(CCCCCC)CCCCCC.N#Cc1ccc[n-]1 [trihexyl(tetradecyl)phosphonium 2-cyanopyrrolide] + CCCCCCn1cc[n+](C)c1C.O=S(=O)([N-]S(=O)(=O)C(F)(F)F)C(F)(F)F ?
Data returned: 83

---

viscosity: recorded values
- test-description: xn = mol fraction of the nth substance listed
- run-parameters: 298.15 K; 100 kPa; Liquid; Cone and plate viscometry; x1 = 0.6
Write the value in mPa·s as a bare number.

compound	endpoint	observed-result
CCCCCCn1cc[n+](C)c1.N#Cc1ccc[n-]1 [1-hexyl-3-methylimidazolium 2-cyanopyrrolide] + CCCCCCCCCCCCCC[P+](CCCCCC)(CCCCCC)CCCCCC.O=S(=O)([N-]S(=O)(=O)C(F)(F)F)C(F)(F)F	viscosity	304
CCCCCCCCCCCCCC[P+](CCCCCC)(CCCCCC)CCCCCC.N#Cc1ccc[n-]1 [trihexyl(tetradecyl)phosphonium 2-cyanopyrrolide] + CCCCCC[n+]1ccn(C)c1.O=S(=O)([N-]S(=O)(=O)C(F)(F)F)C(F)(F)F	viscosity	319
CCCCCCCC[P+](CC)(CC)CC.O=[N+]([O-])c1cn[n-]c1 [triethyloctylphosphonium 4-nitropyrazolide] + CCCCCCn1cc[n+](C)c1C.O=S(=O)([N-]S(=O)(=O)C(F)(F)F)C(F)(F)F	viscosity	254

Data request: Requested field: viscosity. Item: CC(=O)[O-].CCCCCCCCCCCCCC[P+](CCCCCC)(CCCCCC)CCCCCC [trihexyl(tetradecyl)phosphonium acetate] + CCCCCC[n+]1ccn(C)c1.O=S(=O)([N-]S(=O)(=O)C(F)(F)F)C(F)(F)F
Data returned: 523

---

- test-description: xn = mol fraction of the nth substance listed
- run-parameters: 308.15 K; 100 kPa; Liquid; Cone and plate viscometry; x1 = 0.1
This section presents compounds with their documented viscosity values.
The response must be a number in mPa·s with no trailing unit.

Past entries and their recorded results:
compound	unit-symbol	viscosity
CCCCCCCCCCCCCC[P+](CCCCCC)(CCCCCC)CCCCCC.N#Cc1ccc[n-]1 [trihexyl(tetradecyl)phosphonium 2-cyanopyrrolide] + CCCCCC[n+]1ccn(C)c1.O=S(=O)([N-]S(=O)(=O)C(F)(F)F)C(F)(F)F	mPa·s	64
CCCCCCn1cc[n+](C)c1.O=[N+]([O-])c1cn[n-]c1 [1-hexyl-3-methylimidazolium 4-nitropyrazolide] + CCCCCCCC[P+](CC)(CC)CC.O=S(=O)([N-]S(=O)(=O)C(F)(F)F)C(F)(F)F	mPa·s	72
CCCCCCCCCCCCCC[P+](CCCCCC)(CCCCCC)CCCCCC.N#Cc1ccc[n-]1 [trihexyl(tetradecyl)phosphonium 2-cyanopyrrolide] + CCCCCCn1cc[n+](C)c1C.O=S(=O)([N-]S(=O)(=O)C(F)(F)F)C(F)(F)F	mPa·s	102

Field: next compound
Data request: # input compound: CCCCCCn1cc[n+](C)c1.N#Cc1ccc[n-]1 [1-hexyl-3-methylimidazolium 2-cyanopyrrolide] + CCCCCCCCCCCCCC[P+](CCCCCC)(CCCCCC)CCCCCC.O=S(=O)([N-]S(=O)(=O)C(F)(F)F)C(F)(F)F ; wanted: its viscosity
Data returned: 176

---

Attribute: mass density
- test-description: xn = mol fraction of the nth substance listed
- run-parameters: 328.15 K; 100 kPa; Liquid; Vibrating tube method; x1 = 0.25
Numbers after ± are expanded uncertainties.
Give me the value, and tack the unit on after it.

Reference set, count: 3
molecule	mass density
CCCCCCn1cc[n+](C)c1C.O=[N+]([O-])c1cn[n-]c1 [1-hexyl-2,3-dimethylimidazolium 4-nitropyrazolide] + CCCCCCCCCCCCCC[P+](CCCCCC)(CCCCCC)CCCCCC.O=S(=O)([N-]S(=O)(=O)C(F)(F)F)C(F)(F)F	1050 ± 12 kg/m3
CCCCCCn1cc[n+](C)c1.O=[N+]([O-])c1cn[n-]c1 [1-hexyl-3-methylimidazolium 4-nitropyrazolide] + CCCCCCCCCCCCCC[P+](CCCCCC)(CCCCCC)CCCCCC.O=S(=O)([N-]S(=O)(=O)C(F)(F)F)C(F)(F)F	1049.9 ± 4 kg/m3
CCCCCCCC[P+](CC)(CC)CC.O=[N+]([O-])c1cn[n-]c1 [triethyloctylphosphonium 4-nitropyrazolide] + CCCCCC[n+]1ccn(C)c1.O=S(=O)([N-]S(=O)(=O)C(F)(F)F)C(F)(F)F	1259.6 ± 12 kg/m3

Now consider the entry below.
Data request: Which mass density reading was recorded for the molecule CCCCCCCC[P+](CC)(CC)CC.O=[N+]([O-])c1cn[n-]c1 [triethyloctylphosphonium 4-nitropyrazolide] + CCCCCCn1cc[n+](C)c1C.O=S(=O)([N-]S(=O)(=O)C(F)(F)F)C(F)(F)F ?
Data returned: 1253.8 ± 12 kg/m3
